# Subject Of Test: P2X7 (Homo sapiens (Human))
# Sequence (Q99572 whole entry): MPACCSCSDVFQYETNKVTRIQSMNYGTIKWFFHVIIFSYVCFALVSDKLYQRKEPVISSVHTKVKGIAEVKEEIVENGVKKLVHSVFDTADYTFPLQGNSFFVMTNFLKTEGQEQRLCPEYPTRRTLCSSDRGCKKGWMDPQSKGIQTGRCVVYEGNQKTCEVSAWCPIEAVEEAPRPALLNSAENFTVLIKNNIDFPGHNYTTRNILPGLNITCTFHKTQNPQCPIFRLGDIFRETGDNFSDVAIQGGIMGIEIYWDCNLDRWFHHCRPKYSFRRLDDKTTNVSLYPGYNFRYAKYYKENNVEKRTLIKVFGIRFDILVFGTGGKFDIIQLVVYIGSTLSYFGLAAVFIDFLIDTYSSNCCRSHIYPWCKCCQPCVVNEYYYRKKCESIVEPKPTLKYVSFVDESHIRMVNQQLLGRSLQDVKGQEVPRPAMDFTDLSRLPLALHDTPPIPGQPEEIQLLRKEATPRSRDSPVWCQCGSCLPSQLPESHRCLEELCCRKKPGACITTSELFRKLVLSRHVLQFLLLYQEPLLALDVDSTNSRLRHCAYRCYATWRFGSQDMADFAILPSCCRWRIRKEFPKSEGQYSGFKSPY
# Measurement Description: P2X7 antagonism in human whole blood, IL-1β release (LPS + Bz-ATP, ELISA)
# Assay type: cell-based
# Condition Info: Human Whole Blood IC50 (μM), LPS 30 ng/ml + Bz-ATP 1 mM
Could you mark each record true (1) if its IC50 falls strictly under 0.05 µM, and false (0) if it equals or exceeds it?

Cc1nc(-c2ccn[nH]2)c2c(n1)[C@H]1CCC[C@@H](C2)N1C(=O)c1cccc(C(F)(F)F)c1C :: true (1)
Cc1nc(-c2ccn[nH]2)c2c(n1)C1CCCC(C2)N1C(=O)c1cccc(Cl)c1Cl (stereo not shown) :: true (1)
Cc1nc(-c2ccn[nH]2)c2c(n1)[C@H]1CCC[C@@H](C2)N1C(=O)c1ccc(F)c(Cl)c1Cl :: true (1)
Cc1nc(-c2ccn[nH]2)c2c(n1)[C@@H]1CCC[C@H](C2)N1C(=O)c1ccc(Cl)c(F)c1Cl :: false (0)
Cc1nc(-c2ccc(F)cc2)c2c(n1)[C@@H]1CCC[C@H](C2)N1C(=O)c1ccc(F)cc1Cl :: false (0)

q: State whether 0.05 µM exceeds IC50 recorded for Cc1nc(-c2ccccn2)c2c(n1)[C@H]1CCC[C@@H](C2)N1C(=O)c1cccc(Cl)c1Cl .
a: true (1)

q: State whether 0.05 µM exceeds IC50 recorded for Cc1nc(-c2ccn[nH]2)c2c(n1)[C@H]1CCC[C@@H](C2)N1C(=O)c1ccnc(C(F)(F)F)c1Cl .
a: true (1)

q: State whether 0.05 µM exceeds IC50 recorded for Cc1nc(-c2ccccn2)c2c(n1)[C@H]1CCC[C@@H](C2)N1C(=O)c1cccc(C(F)(F)F)c1Cl .
a: false (0)

Values were extracted from patent US10150766B2.
